systemName: CCR9 (Homo sapiens (Human), UniProt P51686)
Sequence (P51686 whole entry): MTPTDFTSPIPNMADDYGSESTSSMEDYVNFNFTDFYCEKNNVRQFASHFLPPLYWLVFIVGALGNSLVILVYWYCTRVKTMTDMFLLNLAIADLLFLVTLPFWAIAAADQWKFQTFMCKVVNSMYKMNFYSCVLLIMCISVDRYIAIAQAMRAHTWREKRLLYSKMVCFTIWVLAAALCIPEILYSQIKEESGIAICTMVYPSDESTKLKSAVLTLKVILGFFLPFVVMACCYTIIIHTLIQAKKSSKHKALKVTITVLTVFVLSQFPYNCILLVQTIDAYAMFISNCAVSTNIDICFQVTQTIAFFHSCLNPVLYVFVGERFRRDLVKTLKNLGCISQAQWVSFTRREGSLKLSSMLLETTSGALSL
methodDescription: FLIPR calcium flux assay using MOLT4 cells, TECK stimulation
Assay type: cell-based
details: MOLT4 cells (human T-cell line)
pKi: −log10 of the molar value.
readoutType: pKi

> print(dat)
                                   molecule  readouttype  endpointvalue
1  Cc1ccc(N2C(=O)c3c(Cl)ccc(NS(=O)(=O)c4ccc(C(C)(C)C)cc4)c3C2=O)c(C)n1 [Compound 224]          pKi           8.30
2  Cc1ccnc(N2C(=O)c3c(Cl)ccc(NS(=O)(=O)c4ccc(C(C)(C)C)cc4)c3C2=O)n1 [Compound 216]          pKi           7.64
3  Cc1cc(N2C(=O)c3c(Cl)ccc(NS(=O)(=O)c4ccc(C(C)(C)C)cc4)c3C2=O)cn(C)c1=O [Compound 285]          pKi           7.80
4  CC(C)(C)c1ccc(S(=O)(=O)Nc2ccc(Cl)c3c2C(=O)N(c2cccnc2F)C3=O)cc1 [Compound 218]          pKi           8.15

P. COc1cncc(N2C(=O)c3c(Cl)ccc(NS(=O)(=O)c4ccc(C(C)(C)C)cc4)c3C2=O)c1 [Compound 90]
Q. CC(C)(C)c1ccc(S(=O)(=O)Nc2ccc(Cl)c3c2C(=O)N(c2cccnn2)C3=O)cc1 [Compound 203]
Between P and Q , whose recorded pKi is greater? When you have decided, please share the label of that item.
P
(P: 7.66, Q: 7.42)

Data provenance is patent US9969687B2.
